# SUBJECT OF TEST: GPR84 (Homo sapiens, UniProt Q9NQS5)
# Sequence (Q9NQS5 whole entry): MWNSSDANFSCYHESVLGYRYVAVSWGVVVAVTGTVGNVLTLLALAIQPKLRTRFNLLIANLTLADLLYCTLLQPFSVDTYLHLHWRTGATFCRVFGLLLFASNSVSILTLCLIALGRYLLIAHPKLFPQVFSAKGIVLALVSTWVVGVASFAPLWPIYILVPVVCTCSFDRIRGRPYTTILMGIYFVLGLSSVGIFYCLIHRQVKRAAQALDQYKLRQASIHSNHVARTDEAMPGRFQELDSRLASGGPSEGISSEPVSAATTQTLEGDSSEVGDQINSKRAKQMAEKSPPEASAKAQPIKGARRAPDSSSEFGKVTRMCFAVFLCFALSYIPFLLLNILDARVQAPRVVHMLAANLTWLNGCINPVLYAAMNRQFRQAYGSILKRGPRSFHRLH
# RUN DESCRIPTION: PRESTO-Tango β-arrestin2 recruitment assay, GPR84 antagonistic activity
# CONDITION NOTES: antagonist activity in the Presto-TANGO assay; inhibition of the response from the agonist ZQ-16 (100 nM); HTLA cells
RECORDED METRIC: IC50 (nM)
Your answer is read as nM, so omit the unit and give the number.

CCc1c(O)cc(OC[C@@H]2COCCO2)nc1CCc1ccc(OC)cc1C#N [Example 55]    0.55
CCCc1ccc(CCc2nc(OCC3COCCO3)cc(O)c2C)cc1 (centres unmarked) [Example 22]    3.02
CCCc1ccc(CCc2nc(OCC3CCCCO3)cc(O)c2Br)cc1 (centres unmarked) [Example 1]    3.02

The recorded IC50 for entry CCCc1ccc(CCc2nc(OCC3CCCCO3)cc(O)c2-c2ccc(OCC(=O)OC)cc2)cc1 (centres unmarked) [Example 18] equals 148

Item: CCCCc1ccc(-c2nc(OC[C@@H]3COCCO3)cc(O)c2CC)cc1 [Example 57] | IC50: 120
